# TARGET_OF_ASSAY: TYK2 (Homo sapiens, UniProt P29597)
# Sequence (P29597 whole entry): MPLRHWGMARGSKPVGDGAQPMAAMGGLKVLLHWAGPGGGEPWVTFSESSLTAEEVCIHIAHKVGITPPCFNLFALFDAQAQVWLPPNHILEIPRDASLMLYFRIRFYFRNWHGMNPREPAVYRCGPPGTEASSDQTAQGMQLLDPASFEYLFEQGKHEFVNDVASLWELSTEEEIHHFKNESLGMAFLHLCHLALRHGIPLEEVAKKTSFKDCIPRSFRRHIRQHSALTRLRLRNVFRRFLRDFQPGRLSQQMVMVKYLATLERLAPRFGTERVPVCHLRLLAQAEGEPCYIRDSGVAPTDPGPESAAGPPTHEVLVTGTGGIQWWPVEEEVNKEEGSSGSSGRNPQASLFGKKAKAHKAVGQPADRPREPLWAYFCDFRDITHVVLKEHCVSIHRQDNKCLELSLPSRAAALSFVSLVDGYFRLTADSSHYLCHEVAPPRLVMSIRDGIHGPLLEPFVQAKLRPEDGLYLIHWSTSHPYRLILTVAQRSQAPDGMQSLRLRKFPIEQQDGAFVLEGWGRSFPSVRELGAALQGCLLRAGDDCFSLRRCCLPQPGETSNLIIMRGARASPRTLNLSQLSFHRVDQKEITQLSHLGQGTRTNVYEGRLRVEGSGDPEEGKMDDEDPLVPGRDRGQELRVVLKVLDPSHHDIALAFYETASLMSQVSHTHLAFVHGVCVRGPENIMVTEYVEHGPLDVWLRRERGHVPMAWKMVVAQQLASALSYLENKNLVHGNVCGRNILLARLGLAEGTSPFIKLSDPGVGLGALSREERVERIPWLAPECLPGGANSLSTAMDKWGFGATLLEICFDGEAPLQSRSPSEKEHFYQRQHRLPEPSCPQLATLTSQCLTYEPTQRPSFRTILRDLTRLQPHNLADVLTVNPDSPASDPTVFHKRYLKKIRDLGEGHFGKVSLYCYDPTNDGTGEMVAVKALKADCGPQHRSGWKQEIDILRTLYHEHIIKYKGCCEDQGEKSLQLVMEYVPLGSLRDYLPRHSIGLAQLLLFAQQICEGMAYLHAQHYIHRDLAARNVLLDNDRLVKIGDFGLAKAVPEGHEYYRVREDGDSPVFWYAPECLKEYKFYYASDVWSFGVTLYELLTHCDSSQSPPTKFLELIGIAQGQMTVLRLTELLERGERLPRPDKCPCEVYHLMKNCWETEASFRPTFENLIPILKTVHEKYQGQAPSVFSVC
# TEST_NAME: Biochemical potency on Tyk2, TR-FRET LANCE Ultra kinase assay (examples 1-99)
# TEST_CONTEXT: ATP at Km (12 μM), read-out: Tyk2 inhibitory activity (pIC50 class) (converted)
QUANTITY_NAME: IC50

Study these solved cases before continuing.
[[record]]
compound = "Cc1nn(-c2cc(S(=O)(=O)CCO)ccc2OC(F)F)c2cc(-c3cnn4cccnc34)ncc12 [Example 22]"
quantity_name = "IC50"
measured = "0.00501 to 0.0501 µM"

[[record]]
compound = "CNCc1nn(-c2cc(S(C)(=O)=O)ccc2OC)c2cc(-c3cnn4cccnc34)ncc12 [Example 89]"
quantity_name = "IC50"
measured = "> 0.0501 µM"

[[record]]
compound = "Cc1nn(-c2cc(SC3CCOCC3)ccc2OC(F)F)c2cc(-c3cnn4cccnc34)ncc12 [Example 72]"
quantity_name = "IC50"
measured = "> 0.0501 µM"

[[record]]
compound = "COc1ccc(F)cc1-n1nc(C)c2cnc(Nc3ncc[nH]c3=O)cc21 [Example 90]"
quantity_name = "IC50"
measured = "0.00501 to 0.0501 µM"

[[record]]
compound = "CSc1ccc(OC(F)F)c(-n2nc(C)c3cnc(-c4cnn5cccnc45)cc32)c1 [Example 13]"
quantity_name = "IC50"
measured = "0.00501 to 0.0501 µM"


**Q:** Which IC50 is listed for COc1ccc(C(F)F)cc1-n1nc(NCCN(C)C)c2cnc(Nc3ncc[nH]c3=O)cc21 [Example 98] ?
**A:** 0.00501 to 0.0501 µM

###

# TARGET_OF_ASSAY: JAK 1 (Homo sapiens)
# Sequence (P23458 whole entry): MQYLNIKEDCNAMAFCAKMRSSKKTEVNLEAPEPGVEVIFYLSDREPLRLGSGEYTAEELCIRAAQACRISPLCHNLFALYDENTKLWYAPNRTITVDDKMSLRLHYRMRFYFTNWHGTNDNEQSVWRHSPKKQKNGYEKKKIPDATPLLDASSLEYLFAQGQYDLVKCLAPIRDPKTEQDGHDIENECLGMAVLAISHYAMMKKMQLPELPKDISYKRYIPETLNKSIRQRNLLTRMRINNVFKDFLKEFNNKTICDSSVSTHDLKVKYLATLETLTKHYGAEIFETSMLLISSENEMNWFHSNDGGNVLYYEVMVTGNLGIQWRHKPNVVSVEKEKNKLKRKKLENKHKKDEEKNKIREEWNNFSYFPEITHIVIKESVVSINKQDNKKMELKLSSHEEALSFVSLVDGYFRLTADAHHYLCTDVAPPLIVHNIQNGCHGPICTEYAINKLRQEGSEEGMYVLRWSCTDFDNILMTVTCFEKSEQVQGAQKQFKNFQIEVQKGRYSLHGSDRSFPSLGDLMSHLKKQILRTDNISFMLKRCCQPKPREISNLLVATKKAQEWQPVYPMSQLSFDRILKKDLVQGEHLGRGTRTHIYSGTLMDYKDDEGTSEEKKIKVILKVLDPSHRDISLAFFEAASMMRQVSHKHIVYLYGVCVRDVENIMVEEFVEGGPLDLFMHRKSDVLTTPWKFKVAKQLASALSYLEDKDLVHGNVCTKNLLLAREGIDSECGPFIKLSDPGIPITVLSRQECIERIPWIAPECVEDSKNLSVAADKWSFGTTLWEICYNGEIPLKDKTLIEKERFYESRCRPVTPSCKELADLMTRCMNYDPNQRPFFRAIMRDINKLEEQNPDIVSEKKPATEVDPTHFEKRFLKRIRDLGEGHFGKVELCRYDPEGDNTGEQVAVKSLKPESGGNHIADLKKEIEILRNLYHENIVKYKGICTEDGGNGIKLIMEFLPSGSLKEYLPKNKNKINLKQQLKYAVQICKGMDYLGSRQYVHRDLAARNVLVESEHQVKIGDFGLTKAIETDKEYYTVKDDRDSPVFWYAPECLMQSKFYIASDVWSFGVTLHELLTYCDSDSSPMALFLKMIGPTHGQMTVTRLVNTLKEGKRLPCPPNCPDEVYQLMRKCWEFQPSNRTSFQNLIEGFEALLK
# TEST_NAME: Biochemical potency on JAK1, TR-FRET LANCE Ultra kinase assay (examples 1-99)
# TEST_CONTEXT: ATP at Km (20 μM), read-out: JAK1 inhibitory activity (pIC50 class) (converted)
Items are presented alongside their recorded IC50.

[[record]]
compound = "COc1ccc(S(C)(=O)=O)cc1-n1nc(C(=O)NCCCN(C)C)c2cnc(-c3cnn4cccnc34)cc21 [Example 83]"
measured = "5.01 to 50.1 nM"

[[record]]
compound = "COc1ccc(C)cc1-n1nc(NCCN(C)C)c2cnc(-c3cnn4cccnc34)cc21 [Example 45]"
measured = "5.01 to 50.1 nM"

[[record]]
compound = "COc1cc(O)c(F)cc1-n1nc(C)c2cnc(-c3cnn4cccnc34)cc21 [Example 58]"
measured = "≤ 5.01 nM"


**Q:** Given COc1ccc(F)cc1-n1nc(C)c2cnc(Nc3ncc[nH]c3=O)cc21 [Example 90] , state its recorded IC50.
**A:** 5.01 to 50.1 nM

**Q:** // IC50 lookup, key: COc1ccc(S(=O)(=O)NCC2CN(C)C2)cc1-n1nc(C)c2cnc(-c3cnn4cccnc34)cc21 [Example 17]
**A:** 5.01 to 50.1 nM

**Q:** State the recorded IC50 for this entry: CSc1ccc(OC(F)F)c(-n2nc(C)c3cnc(-c4cnn5cccnc45)cc32)c1 [Example 13]
**A:** ≤ 5.01 nM

###

Entries and their measured IC50 follow.
# TARGET_OF_ASSAY: JAK 2 (Homo sapiens, UniProt O60674)
# Sequence (O60674 whole entry): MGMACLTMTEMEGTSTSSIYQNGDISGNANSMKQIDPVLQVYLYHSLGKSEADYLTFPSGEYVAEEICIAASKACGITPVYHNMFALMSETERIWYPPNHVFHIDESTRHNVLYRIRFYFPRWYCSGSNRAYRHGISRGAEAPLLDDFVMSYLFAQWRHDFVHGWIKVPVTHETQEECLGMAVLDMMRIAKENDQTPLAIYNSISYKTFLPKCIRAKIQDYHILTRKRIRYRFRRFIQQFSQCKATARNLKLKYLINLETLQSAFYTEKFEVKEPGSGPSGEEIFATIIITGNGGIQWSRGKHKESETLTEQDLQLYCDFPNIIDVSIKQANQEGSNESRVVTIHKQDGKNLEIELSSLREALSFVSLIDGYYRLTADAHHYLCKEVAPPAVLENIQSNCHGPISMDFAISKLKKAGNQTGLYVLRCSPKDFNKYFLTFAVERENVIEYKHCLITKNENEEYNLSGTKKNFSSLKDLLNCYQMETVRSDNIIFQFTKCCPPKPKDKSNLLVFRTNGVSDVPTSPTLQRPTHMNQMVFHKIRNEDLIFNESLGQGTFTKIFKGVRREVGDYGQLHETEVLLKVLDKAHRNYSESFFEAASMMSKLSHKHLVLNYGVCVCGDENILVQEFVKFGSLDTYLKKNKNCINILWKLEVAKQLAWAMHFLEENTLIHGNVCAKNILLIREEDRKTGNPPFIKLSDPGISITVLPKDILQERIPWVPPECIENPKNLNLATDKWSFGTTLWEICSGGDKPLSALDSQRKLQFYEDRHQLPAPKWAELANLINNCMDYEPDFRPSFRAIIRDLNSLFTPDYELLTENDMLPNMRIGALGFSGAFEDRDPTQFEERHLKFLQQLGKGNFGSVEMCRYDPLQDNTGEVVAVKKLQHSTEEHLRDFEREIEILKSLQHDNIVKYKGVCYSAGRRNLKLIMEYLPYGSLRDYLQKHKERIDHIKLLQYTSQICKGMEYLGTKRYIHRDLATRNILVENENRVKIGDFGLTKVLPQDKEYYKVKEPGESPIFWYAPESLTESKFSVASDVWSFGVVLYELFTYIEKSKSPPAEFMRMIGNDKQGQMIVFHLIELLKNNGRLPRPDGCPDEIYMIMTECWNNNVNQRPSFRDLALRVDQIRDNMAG
# TEST_NAME: Biochemical potency on JAK2, TR-FRET LANCE Ultra kinase assay (examples 1-99)
# TEST_CONTEXT: ATP at Km (0.7 μM), read-out: JAK2 inhibitory activity (pIC50 class) (converted)

[[record]]
molecule = "COc1ccc(S(C)(=O)=O)cc1-n1nc(C(=O)NCCCN2CCOCC2)c2cnc(-c3cnn4cccnc34)cc21 [Example 84]"
measured = "5.01 to 50.1 nM"


**Q:** // query IC50 value for entry COc1ccc(Cl)cc1-n1nc(N(C)C)c2cnc(-c3cnn4cccnc34)cc21 [Example 42]
**A:** 5.01 to 50.1 nM

**Q:** Looking for the measured IC50 of Cc1nn(-c2cc(S(=O)(=O)CCN3CCCCC3)ccc2OC(F)F)c2cc(-c3cnn4cccnc34)ncc12 [Example 23] , can you help?
**A:** 5.01 to 50.1 nM
